system: M14 melanoma; assay: NCI-60 one-dose screen, 48 h (100 = growth as untreated, 0 = no growth, -100 = all killed); details: 10 µM
Compounds without any hit were thinned out: in the full panel of roughly 83,000, 20% have a hit.
Form field: growth (one value per entry).
Write it as a number; the unit % goes unstated.

{"compound": "Cc1ccc(S(=O)(=O)N/N=C2\\CCCc3ccccc32)cc1", "targetDesc": "M14 melanoma", "growth [%]": 118}
{"compound": "CCOC(=O)c1sc2ncnc(Nc3ccc(NC(=O)Nc4ccc(Cl)cc4)cc3)c2c1C", "targetDesc": "M14 melanoma", "growth [%]": 64.8}
{"compound": "Cc1c(Cl)cccc1NC(=O)CN1CCOCC1", "targetDesc": "M14 melanoma", "growth [%]": 94.9}
{"compound": "COc1ccc2cc(-c3nc4ccccc4s3)c(Cl)nc2c1OC", "targetDesc": "M14 melanoma", "growth [%]": 102}

Pending compound:
# growth lookup, item COc1ccc(/C=c2\sc3n(c2=O)C(c2cc(OC)c(OC)c(OC)c2)C=C(c2ccc(OC)c(OC)c2)N=3)cc1OC (stereo not given)
100
